Consider the following molecules and their measured pIC50 readings.
- Test system: HaCaT, human immortalized keratinocyte cell line
- protocol-summary: Cytotoxicity toward normal cells, MTT assay
- Format: cell-based
- condition-summary: 72 h, mean ± SD
pIC50: −log10 of the molar value.
assay-readout: pIC50

>>> assay_result("O=c1[nH]c(=O)n([C@H]2C[C@H](O)[C@@H](CO)O2)cc1F [floxuridine, reference compound]")
4.61
>>> assay_result("C=C[C@H]1CN2CC[C@H]1C[C@@H]2[C@@H](OC(=O)O[C@@H]1/C(C)=C/C[C@@H]2C[C@@H](C[C@]3(CC[C@H](C)[C@@H]([C@@H](C)CC)O3)O2)OC(=O)[C@@H]2C=C(C)[C@@H](O)[C@H]3OC/C(=C\\C=C\\[C@@H]1C)[C@]32O)c1ccnc2ccc(OC)cc12 [compound 5, Ivermectin–Quinidine Conjugate]")
4.83
>>> assay_result("C=C[C@H]1CN2CC[C@H]1C[C@H]2[C@H](OC(=O)O[C@@H]1/C(C)=C/C[C@@H]2C[C@@H](C[C@]3(CC[C@H](C)[C@@H]([C@@H](C)CC)O3)O2)OC(=O)[C@@H]2C=C(C)[C@@H](O)[C@H]3OC/C(=C\\C=C\\[C@@H]1C)[C@]32O)c1ccnc2ccccc12 [compound 7, Ivermectin–Cinchonidine Conjugate]")
4.30
>>> assay_result("CC[C@H](C)[C@H]1O[C@]2(CC[C@@H]1C)C[C@@H]1C[C@@H](C/C=C(\\C)[C@@H](O[C@H]3C[C@H](OC)[C@@H](O[C@H]4C[C@H](OC)[C@@H](O)[C@H](C)O4)[C@H](C)O3)[C@@H](C)/C=C/C=C3\\CO[C@@H]4[C@H](O)C(C)=C[C@@H](C(=O)O1)[C@]34O)O2")
4.90
>>> assay_result("COc1cccc2c1C(=O)c1c(O)c3c(c(O)c1C2=O)C[C@@](O)(C(=O)CO)C[C@@H]3O[C@H]1C[C@H](N)[C@H](O)[C@H](C)O1 [doxorubicin, reference compound]")
6.54
>>> assay_result("CCC(C)C1OC2(CCC1C)CC1CC(CC=C(C)C(OC(=O)OCC3OC(n4cc(C)c(=O)[nH]c4=O)CC3N=[N+]=[N-])C(C)C=CC=C3COC4C(O)C(C)=CC(C(=O)O1)C34O)O2 (centres unmarked) [compound 11, Ivermectin–Azidothymidine Conjugate]")
4.58

* * *

- System: HaCaT, human immortalized keratinocyte cell line
- protocol-summary: Cytotoxicity toward normal cells, MTT assay
- Type: cell-based
- condition-summary: 72 h, mean ± SD
assay-readout: IC50

>>> assay_result("C=C(C)[C@@H]1CC[C@]2(C(=O)O)CC[C@]3(C)[C@H](CC[C@@H]4[C@@]5(C)CC[C@H](O)C(C)(C)[C@@H]5CC[C@]43C)[C@@H]12 [betulinic acid, reference compound]")
"> 100 µM"
>>> assay_result("C[C@H]1[C@H](OC(=O)CCC(=O)O)O[C@@H]2O[C@@]3(C)CC[C@H]4[C@H](C)CC[C@@H]1[C@@]24OO3 [artesunate, reference compound]")
"5.7 µM"
>>> assay_result("C=C(C)C1CCC2(C(=O)OCc3cn(CC(=O)OC4C(C)=CCC5CC(CC6(CCC(C)C(C(C)CC)O6)O5)OC(=O)C5C=C(C)C(O)C6OCC(=CC=CC4C)C56O)nn3)CCC3(C)C(CCC4C5(C)CCC(O)C(C)(C)C5CCC43C)C12 (stereo not drawn) [compound 15, Ivermectin–Betulinic Acid Conjugate]")
"> 100 µM"
